target: NHERF4_4, Q86UT5; experiment: holdup assay; parameters: key: below the threshold = too weak to quantify, mostly under pKd 3.1 to 4; settings: plain residues with an end cap or a label only (N-terminal biotin on a linker: ado-ado)
Sequence (Q86UT5 464-550): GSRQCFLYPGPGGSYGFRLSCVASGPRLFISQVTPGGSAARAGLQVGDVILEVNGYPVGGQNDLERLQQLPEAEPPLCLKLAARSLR
Observed Property: pKd

Some solved cases for reference:
# Binder, Observed Property, Measured Result
data = [
    ("KPGKGSETVV [FZD4, Q9ULV1]", "pKd", "below the threshold"),
    ("EDGESWEYQI [TRPV6, Q9H1D0]", "pKd", 3.94),
    ("PPGKHLVTEV [KCNA7, Q96RP8]", "pKd", "below the threshold"),
    ("LAHVKHKEQI [AQP3, Q92482]", "pKd", "below the threshold"),
    ("EDPRVEVTQF [SLC22A9, Q8IVM8]", "pKd", "below the threshold"),
    ("REEPDHSTEV [CCRL2, O00421]", "pKd", "below the threshold"),
]

I have 2 binders here; please give me pKd for each one.
1. KSRVAFFEEL [NF2, P35240;P35240-1]
2. LPAVCYDIDI [PTTG2, Q9NZH5]

below the threshold
4.9

Every entry's value here was drawn from paper PMC9482650.
